- System: telomerase (Homo sapiens, UniProt O14746)
- Construct: endogenous in cells; host or cells: A375 human melanoma cells
- Sequence (O14746 whole entry): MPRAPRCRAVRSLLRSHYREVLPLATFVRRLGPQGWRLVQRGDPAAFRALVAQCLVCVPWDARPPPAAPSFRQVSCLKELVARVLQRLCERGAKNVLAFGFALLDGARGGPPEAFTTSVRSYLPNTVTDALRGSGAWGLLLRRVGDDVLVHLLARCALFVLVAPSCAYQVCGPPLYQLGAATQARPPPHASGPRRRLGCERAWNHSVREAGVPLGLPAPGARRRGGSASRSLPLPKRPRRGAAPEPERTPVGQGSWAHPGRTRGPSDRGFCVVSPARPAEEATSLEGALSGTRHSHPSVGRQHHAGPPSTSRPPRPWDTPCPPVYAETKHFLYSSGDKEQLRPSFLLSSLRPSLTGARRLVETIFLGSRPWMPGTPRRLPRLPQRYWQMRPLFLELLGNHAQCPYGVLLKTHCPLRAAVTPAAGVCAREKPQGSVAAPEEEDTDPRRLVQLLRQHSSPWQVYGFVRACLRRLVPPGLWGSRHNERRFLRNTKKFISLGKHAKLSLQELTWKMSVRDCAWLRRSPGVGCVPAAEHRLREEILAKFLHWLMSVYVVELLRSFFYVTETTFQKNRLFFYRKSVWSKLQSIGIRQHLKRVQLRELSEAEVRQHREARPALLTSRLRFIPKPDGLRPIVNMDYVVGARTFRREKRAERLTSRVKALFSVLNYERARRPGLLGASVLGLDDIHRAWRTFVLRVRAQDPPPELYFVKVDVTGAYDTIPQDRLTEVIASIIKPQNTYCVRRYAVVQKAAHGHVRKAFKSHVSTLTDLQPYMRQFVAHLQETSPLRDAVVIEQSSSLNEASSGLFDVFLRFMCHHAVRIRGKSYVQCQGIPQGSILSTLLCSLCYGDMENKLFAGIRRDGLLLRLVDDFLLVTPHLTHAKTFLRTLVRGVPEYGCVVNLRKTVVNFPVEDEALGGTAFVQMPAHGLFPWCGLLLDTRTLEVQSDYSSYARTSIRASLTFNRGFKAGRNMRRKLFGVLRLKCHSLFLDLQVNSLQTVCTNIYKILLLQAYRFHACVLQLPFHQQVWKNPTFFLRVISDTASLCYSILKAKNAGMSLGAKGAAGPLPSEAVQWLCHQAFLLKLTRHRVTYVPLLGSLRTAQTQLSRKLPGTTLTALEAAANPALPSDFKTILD
- Experiment Notes: Telomerase activity TRAP-PCR-ELISA assay (A375 cell extract)
- Type: biochemical
- Measurement Setup: IC50 inhibitory activity against telomerase, TRAP-PCR-ELISA, A375 cells, 24 h treatment
Catalogue of molecules with associated IC50

{"Compound Smiles": "O=S(=O)(F)/C=C/c1cc(O)cc(O)c1", "IC50 [µM]": 1.44}
{"Compound Smiles": "O=S(=O)(F)/C=C/c1ccc(Br)cc1", "IC50 [µM]": 4.33}
{"Compound Smiles": "COc1cc(/C=C/C=C/S(=O)(=O)F)cc(OC)c1", "IC50 [µM]": 3.2}
{"Compound Smiles": "O=S(=O)(F)/C=C/c1ccc(-c2ccccc2)cc1", "IC50 [µM]": 0.71}
{"Compound Smiles": "O=S(=O)(F)/C=C/c1cccc(C(F)(F)F)c1", "IC50 [µM]": 4.17}
